Hey, just so you know, these numbers are from PubChem BioAssay (NCI).

tested on: MDA-MB-468 breast; assay: NCI tumour cell line growth inhibition, 48 h
Listed next: entries and their corresponding TGI.

{"compound": "Cc1ccccc1NC(=O)NC(CC(N)=O)c1ccc2c(c1)nc(-c1cccc(Oc3ccc(C(C)(C)C)cc3)c1)n2CCCN1CCCCC1C (stereo unspecified)", "rel": "=", "TGI, µM": 3.28}
{"compound": "COC(=O)c1c(-c2ccccc2)csc1NC(=O)c1c(-c2ccccc2)noc1C", "rel": ">", "TGI, µM": 100}
{"compound": "O=C1NC(=NCCc2ccccc2Cl)S/C1=C\\c1ccc2ncccc2c1", "rel": ">", "TGI, µM": 18.3}
{"compound": "Cn1c(=O)c(Cc2ccc(F)cc2F)cc2cnc(NC3CCOCC3)nc21", "rel": ">", "TGI, µM": 25}
{"compound": "C=C1C(=O)O[C@@H]2/C=C(/C)C3=CC(=O)[C@@](C)(C[C@H](OC(=O)/C(C)=C\\C)[C@@H]12)O3", "rel": "=", "TGI, µM": 5.03}
{"compound": "NC(=O)NC(=O)CI", "rel": "=", "TGI, µM": 7.73}
